Target: human TLR8 (Homo sapiens)
Sequence (Q9NR97 27-1041): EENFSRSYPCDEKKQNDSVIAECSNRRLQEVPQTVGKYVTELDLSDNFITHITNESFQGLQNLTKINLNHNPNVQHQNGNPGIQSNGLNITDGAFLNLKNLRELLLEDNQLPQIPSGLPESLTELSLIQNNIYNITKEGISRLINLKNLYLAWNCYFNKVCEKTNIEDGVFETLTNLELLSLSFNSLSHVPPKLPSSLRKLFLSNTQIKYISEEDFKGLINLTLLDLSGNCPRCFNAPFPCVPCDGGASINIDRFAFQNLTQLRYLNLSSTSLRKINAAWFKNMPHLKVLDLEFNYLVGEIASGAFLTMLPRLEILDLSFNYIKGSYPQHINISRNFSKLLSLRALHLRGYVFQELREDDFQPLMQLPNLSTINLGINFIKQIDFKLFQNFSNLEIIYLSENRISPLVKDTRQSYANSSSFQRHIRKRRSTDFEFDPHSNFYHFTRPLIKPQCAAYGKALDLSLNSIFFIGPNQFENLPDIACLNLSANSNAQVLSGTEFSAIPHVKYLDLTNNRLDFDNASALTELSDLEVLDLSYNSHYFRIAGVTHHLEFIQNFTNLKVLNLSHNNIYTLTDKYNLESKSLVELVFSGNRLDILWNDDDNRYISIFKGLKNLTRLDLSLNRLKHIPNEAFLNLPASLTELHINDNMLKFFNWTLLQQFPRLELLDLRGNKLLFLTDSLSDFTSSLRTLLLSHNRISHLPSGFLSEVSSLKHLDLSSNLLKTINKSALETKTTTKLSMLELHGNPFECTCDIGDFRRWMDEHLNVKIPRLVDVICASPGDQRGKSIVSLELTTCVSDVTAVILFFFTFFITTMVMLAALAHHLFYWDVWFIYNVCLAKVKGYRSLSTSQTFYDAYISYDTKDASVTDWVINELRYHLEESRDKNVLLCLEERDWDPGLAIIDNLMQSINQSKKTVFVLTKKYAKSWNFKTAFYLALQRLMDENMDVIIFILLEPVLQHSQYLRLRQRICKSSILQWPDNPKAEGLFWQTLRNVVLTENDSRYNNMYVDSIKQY
Test: TLR8 inhibition reporter assay (HEK-Blue cells, SEAP reporter, R848 stimulation)
Conditions: HEK-Blue cells overexpressing human TLR8, SEAP reporter, R848 15.9 μM
observed.property: IC50

GET /value?item= CCOc1cc(-c2[nH]c3ccc(C4CCN(CC(=O)N(C)C)CC4)cc3c2C(C)C)cc2nc(C)nn12 [Example 404] &field=IC50 returns < 100 nM

GET /value?item= CC(C)c1c(-c2ccc3ncnn3n2)[nH]c2ccc(C3CCN(C(=O)CN(C)C)CC3)cc12 [Example 452] &field=IC50 returns < 100 nM

GET /value?item= Cc1c(-c2ccnc3c2ccn3C)[nH]c2ccc(C3CCN(C4CCN(CC(C)C)CC4)CC3)cc12 [Example 843] &field=IC50 returns < 100 nM

GET /value?item= CC(C)c1c(-c2cc(F)c3nccn3c2)[nH]c2ccc(C3CCN(CC(=O)N(C)C)CC3)cc12 [Example 408] &field=IC50 returns 100 to 1000 nM
